# Study Target: T1, cMet-Fc fusion protein (extracellular domain of the cMet receptor expressed as an Fc-fusion protein) (human, UniProt P08581 25-932)
# T1 construct: extracellular domain; also called soluble cMet-Fc-fusion protein; soluble cMet receptor; not shown: Fc part
# T1 sequence (P08581 25-932): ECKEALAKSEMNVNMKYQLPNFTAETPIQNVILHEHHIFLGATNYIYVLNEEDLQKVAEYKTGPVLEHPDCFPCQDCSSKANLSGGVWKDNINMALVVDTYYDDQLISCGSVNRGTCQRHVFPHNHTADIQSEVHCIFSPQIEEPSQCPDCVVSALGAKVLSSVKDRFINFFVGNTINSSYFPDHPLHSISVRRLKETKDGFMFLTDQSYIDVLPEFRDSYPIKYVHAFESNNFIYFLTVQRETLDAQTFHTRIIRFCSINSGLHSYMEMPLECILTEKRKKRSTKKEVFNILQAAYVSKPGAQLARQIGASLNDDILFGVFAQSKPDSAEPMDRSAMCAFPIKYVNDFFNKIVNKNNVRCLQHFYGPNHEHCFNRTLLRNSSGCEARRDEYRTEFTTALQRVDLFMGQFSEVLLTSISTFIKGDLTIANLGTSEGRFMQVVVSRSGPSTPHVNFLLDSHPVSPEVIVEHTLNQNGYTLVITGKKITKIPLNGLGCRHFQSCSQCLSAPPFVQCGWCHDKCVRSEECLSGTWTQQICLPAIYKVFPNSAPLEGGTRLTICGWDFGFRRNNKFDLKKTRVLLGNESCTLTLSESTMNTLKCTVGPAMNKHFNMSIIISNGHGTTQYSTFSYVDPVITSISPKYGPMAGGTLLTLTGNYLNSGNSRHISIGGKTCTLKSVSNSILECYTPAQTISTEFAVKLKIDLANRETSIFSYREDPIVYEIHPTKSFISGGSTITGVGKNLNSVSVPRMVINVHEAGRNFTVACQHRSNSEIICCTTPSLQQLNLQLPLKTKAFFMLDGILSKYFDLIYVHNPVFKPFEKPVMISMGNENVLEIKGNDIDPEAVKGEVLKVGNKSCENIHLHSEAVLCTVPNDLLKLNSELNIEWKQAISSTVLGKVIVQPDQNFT
# Experimental Details: phage ELISA, cMet-Fc vs TRAIL-Fc

- Binder: "AQRWSSPGMSQSFVLEWKWNDN [118-A08 peptide-displaying phage (SEQ ID NO: 453)]"
  Units Label: "fold"
  Protein ELISA (fold over background): 11.3
- Binder: "AGNLPCHWNMSVCDHQGT [465-D01 peptide-displaying phage (SEQ ID NO: 034)]"
  Units Label: "fold"
  Protein ELISA (fold over background): 3.3
- Binder: "AGFWDCGWMMQDCHMHGT [470-C02 peptide-displaying phage (SEQ ID NO: 045)]"
  Units Label: "fold"
  Protein ELISA (fold over background): 3.9
- Binder: "AGYWDCKGPPHFFCEWHGT [552-G11 peptide-displaying phage (SEQ ID NO: 080)]"
  Units Label: "fold"
  Protein ELISA (fold over background): 7.4
- Binder: "AQGGRYPFYDTDWFKWEMYVL [527-A10 peptide-displaying phage (SEQ ID NO: 496)]"
  Units Label: "fold"
  Protein ELISA (fold over background): 3.8
- Binder: "AQREVEEPYWYLDFLSSWRMHE [524-E09 peptide-displaying phage (SEQ ID NO: 451)]"
  Units Label: "fold"
  Protein ELISA (fold over background): 8.2
- Binder: "AGTVYCSWESSECWWVGT [352-E04 peptide-displaying phage (SEQ ID NO: 019)]"
  Units Label: "fold"
  Protein ELISA (fold over background): 3.9
